- assayed.system: Melanocortin receptor 4 (Mus musculus)
- Sequence (P56450 whole entry): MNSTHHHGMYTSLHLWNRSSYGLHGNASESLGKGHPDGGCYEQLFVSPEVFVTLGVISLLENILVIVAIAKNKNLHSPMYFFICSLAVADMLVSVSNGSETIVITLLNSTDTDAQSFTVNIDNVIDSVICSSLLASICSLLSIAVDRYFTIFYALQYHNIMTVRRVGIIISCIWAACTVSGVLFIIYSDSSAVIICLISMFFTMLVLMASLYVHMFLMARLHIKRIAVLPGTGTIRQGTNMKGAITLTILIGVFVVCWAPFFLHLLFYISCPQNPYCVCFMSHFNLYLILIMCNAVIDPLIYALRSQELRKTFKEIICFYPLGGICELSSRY
- test.protocol: Antagonist activity at mouse melanocortin receptor 4 expressed in HEK293 cells assessed as inhibition of NDP-MSH-induced cAMP accumulation incubated for 2 hrs by cAMP Alpha-screen assay based Schild analysis
assay.metric: log10(Ki) (log10 of the value in nM)

>  <cpd.smiles>
CC(=O)N[C@@H](CCCNC(=N)N)C(=O)N[C@@H](CCCNC(=N)N)C(=O)N[C@H](Cc1ccc(-c2ccccc2)cc1)C(=O)N1Cc2ccccc2C[C@H]1C(N)=O

>  <assay.metric>
log10(Ki)

>  <observed.result>
2.10

$$$$
>  <cpd.smiles>
CC(=O)N[C@@H](Cc1c[nH]cn1)C(=O)N[C@@H](CCCNC(=N)N)C(=O)N[C@H](Cc1ccc(-c2ccccc2)cc1)C(=O)N1Cc2ccccc2C[C@H]1C(N)=O

>  <assay.metric>
log10(Ki)

>  <observed.result>
2.51

$$$$
>  <cpd.smiles>
CC(=O)N[C@H](C(=O)N[C@@H](CCCNC(=N)N)C(=O)N[C@H](Cc1ccc(-c2ccccc2)cc1)C(=O)N1Cc2ccccc2C[C@@H]1C(N)=O)C(C)C

>  <assay.metric>
log10(Ki)

>  <observed.result>
2.40

$$$$
>  <cpd.smiles>
CC(=O)N[C@H](C(=O)N[C@@H](CCCNC(=N)N)C(=O)N[C@H](Cc1ccc(-c2ccccc2)cc1)C(=O)N1Cc2ccccc2C[C@H]1C(N)=O)C(C)C

>  <assay.metric>
log10(Ki)

>  <observed.result>
2.60

$$$$
>  <cpd.smiles>
CC(=O)N[C@@H](Cc1c[nH]cn1)C(=O)N[C@@H](CCC(N)=O)C(=O)N[C@H](Cc1ccc(-c2ccccc2)cc1)C(=O)N1Cc2ccccc2C[C@H]1C(N)=O

>  <assay.metric>
log10(Ki)

>  <observed.result>
4.00

$$$$
